Reference source: PubChem BioAssay AID1845208

Field: viability, T/C. Provide a value for each of the compounds that follow.
Tested on: NCI-H196 SCLC complex tumor spheroid viability
Protocol: Anticancer human tumor NCI-H196 cell line growth inhibition;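 also: spheroids exposed to compounds for 7 days before readout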;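 as to viability, T/C: 100% = DMSO vehicle control wells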
Condition set: second compound 0.0949 µM; first compound 0.0949 µM; stronger effect = lower value
One number for each entry, in %.

# annotated cases, reported viability, T/C shown
CNCc1ccc(-c2cc(-c3nc(-c4ccc(S(=O)(=O)C(C)C)cc4)cnc3N)on2)cc1 + CC[C@@]1(O)C(=O)OCc2c1cc1n(c2=O)Cc2cc3c(CN(C)C)c(O)ccc3nc2-1 = 121
Cn1ncnc1[C@H]1c2n[nH]c(=O)c3cc(F)cc(c23)N[C@@H]1c1ccc(F)cc1 + CC[C@@]1(O)C(=O)OCc2c1cc1n(c2=O)Cc2cc3c(CN(C)C)c(O)ccc3nc2-1 = 105
O=C(c1cc(Cc2n[nH]c(=O)c3ccccc23)ccc1F)N1CCN(C(=O)C2CC2)CC1 + CC[C@@]1(O)C(=O)OCc2c1cc1n(c2=O)Cc2cc3c(CN(C)C)c(O)ccc3nc2-1 = 96.3

As a next step, examine the compound that follows.
**Q:** Entry Cc1sc2c(c1C)C(c1ccc(Cl)cc1)=NC(CC(=O)Nc1ccc(O)cc1)c1nnc(C)n1-2 (centres undefined) + CC[C@@]1(O)C(=O)OCc2c1cc1n(c2=O)Cc2cc3c(CN(C)C)c(O)ccc3nc2-1 has what viability, T/C?
**A:** 88.1

###

Field: viability, T/C. Provide a value for each of the compounds that follow.
System: NCI-H196 SCLC complex tumor spheroid viability
Protocol: Anticancer human tumor NCI-H196 cell line growth inhibition;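 also: spheroids exposed to compounds for 7 days before readout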;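 as to viability, T/C: 100% = DMSO vehicle control wells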
Condition set: second compound 100 µM; first compound 0.3 µM; stronger effect = lower value
Method: Multicellular complex tumor spheroid response to DNA repair inhibitors in combination with DNA-damaging drugs This study explores the anticancer activities of DNA-damaging drugs and inhibitors of DNA damage repair, both as single agents and in combinations. […] Twenty-six patient-derived or established malignant cell lines were evaluated representing sarcoma, melanoma, small cell lung cancer (SCLC), non-small cell lung cancer (NSCLC), as well as bladder, ovarian and pancreatic cancers. […]
Give bare numbers, in %.

# annotated cases, reported viability, T/C shown
Cc1sc2c(c1C)C(c1ccc(Cl)cc1)=NC(CC(=O)Nc1ccc(O)cc1)c1nnc(C)n1-2 (centres undefined) + Cn1nnc2c(C(N)=O)ncn2c1=O = 85
O=C(c1cc(Cc2n[nH]c(=O)c3ccccc23)ccc1F)N1CCN(C(=O)C2CC2)CC1 + Cn1nnc2c(C(N)=O)ncn2c1=O = 96.5
Cn1ncnc1[C@H]1c2n[nH]c(=O)c3cc(F)cc(c23)N[C@@H]1c1ccc(F)cc1 + Cn1nnc2c(C(N)=O)ncn2c1=O = 94.8

As a next step, examine the compound that follows.
**Q:** Lab note: need viability, T/C for CNCc1ccc(-c2cc(-c3nc(-c4ccc(S(=O)(=O)C(C)C)cc4)cnc3N)on2)cc1 + Cn1nnc2c(C(N)=O)ncn2c1=O on NCI-H196 SCLC complex tumor spheroid viability, anyone have it?
**A:** 99.6

###

System: NCI-H196 SCLC complex tumor spheroid viability
Protocol: Anticancer human tumor NCI-H196 cell line growth inhibition;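 also: spheroids exposed to compounds for 7 days before readout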;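 as to viability, T/C: 100% = DMSO vehicle control wells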
Condition set: second compound 0.3 µM; first compound 0.0316 µM; stronger effect = lower value
Field: viability, T/C. Provide a value for each of the molecules that follow.
One number for each entry, in %.

COc1ccc([C@@H](O)c2cc(-c3ncnc4cc(N5CCOCC5)ccc34)c(F)cc2Cl)nn1 + CC[C@@]1(O)C(=O)OCc2c1cc1n(c2=O)Cc2cc3c(CN(C)C)c(O)ccc3nc2-1 = 107
CC1COCCN1c1cc(-c2ccnn2C)c2ccnc(-c3ccn[nH]3)c2n1 (stereo unspecified) + CC[C@@]1(O)C(=O)OCc2c1cc1n(c2=O)Cc2cc3c(CN(C)C)c(O)ccc3nc2-1 = 55.9
COc1cc(C)[nH]c(=O)c1CN1CCc2c(Cl)cc(C(OC)C3COC3)c(Cl)c2C1=O (stereo unspecified) + CC[C@@]1(O)C(=O)OCc2c1cc1n(c2=O)Cc2cc3c(CN(C)C)c(O)ccc3nc2-1 = 104
CC(C)n1c(=O)n(C)c2cnc3cc(F)c(-c4ccc(OCCCN5CCCCC5)nc4)cc3c21 + CC[C@@]1(O)C(=O)OCc2c1cc1n(c2=O)Cc2cc3c(CN(C)C)c(O)ccc3nc2-1 = 110
[2H]c1nc(C)nc([2H])c1-c1cc(NC[C@@H](C)c2cccc3c(C(=O)NC)ccnc23)ncn1 + CC[C@@]1(O)C(=O)OCc2c1cc1n(c2=O)Cc2cc3c(CN(C)C)c(O)ccc3nc2-1 = 109

As a next step, examine the molecule that follows.
**Q:** Lab note: need viability, T/C for Cc1cc(C)c(CNC(=O)c2cc(-c3ccc(CN4CCOCC4)cc3)cc3c2cnn3C2CCCC2)c(=O)[nH]1 + CC[C@@]1(O)C(=O)OCc2c1cc1n(c2=O)Cc2cc3c(CN(C)C)c(O)ccc3nc2-1 on NCI-H196 SCLC complex tumor spheroid viability, anyone have it?
**A:** 95.6

###

Tested on: NCI-H196 SCLC complex tumor spheroid viability
Protocol: Anticancer human tumor NCI-H196 cell line growth inhibition;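 also: spheroids exposed to compounds for 7 days before readout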
Condition set: curve of first compound; second compound 31.6 µM
pIC50: −log10 of the molar value.
Metric: pIC50

# annotated cases, reported pIC50 shown
Cc1sc2c(c1C)C(c1ccc(Cl)cc1)=NC(CC(=O)Nc1ccc(O)cc1)c1nnc(C)n1-2 (configuration not stated) + Cn1nnc2c(C(N)=O)ncn2c1=O = 5.87
CC1COCCN1c1cc(-c2ccnn2C)c2ccnc(-c3ccn[nH]3)c2n1 (configuration not stated) + Cn1nnc2c(C(N)=O)ncn2c1=O = 5.35
Cn1ncnc1[C@H]1c2n[nH]c(=O)c3cc(F)cc(c23)N[C@@H]1c1ccc(F)cc1 + Cn1nnc2c(C(N)=O)ncn2c1=O = < 5.52
[2H]c1nc(C)nc([2H])c1-c1cc(NC[C@@H](C)c2cccc3c(C(=O)NC)ccnc23)ncn1 + Cn1nnc2c(C(N)=O)ncn2c1=O = < 5.00
CC(C)n1c(=O)n(C)c2cnc3cc(F)c(-c4ccc(OCCCN5CCCCC5)nc4)cc3c21 + Cn1nnc2c(C(N)=O)ncn2c1=O = < 5.00

Provide pIC50 values for the following items, in order.
1. COc1ccc([C@@H](O)c2cc(-c3ncnc4cc(N5CCOCC5)ccc34)c(F)cc2Cl)nn1 + Cn1nnc2c(C(N)=O)ncn2c1=O
2. CNCc1ccc(-c2cc(-c3nc(-c4ccc(S(=O)(=O)C(C)C)cc4)cnc3N)on2)cc1 + Cn1nnc2c(C(N)=O)ncn2c1=O

**A:**
< 5.00
< 5.52

###

System: NCI-H196 SCLC complex tumor spheroid viability
Protocol: Anticancer human tumor NCI-H196 cell line growth inhibition; active = viability on the fitted dose curve at most 10% of control; inactive = the rest;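 also: spheroids exposed to compounds for 7 days before readout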
Condition set: second compound 0.003 µM; first compound 0.949 µM
API: response.call in TRUE = active, FALSE = inactive

# example entries with known answers
O=C(c1cc(Cc2n[nH]c(=O)c3ccccc23)ccc1F)N1CCN(C(=O)C2CC2)CC1 + COc1cc2c(cc1O)CCNC21CSC2c3c(OC(C)=O)c(C)c4c(c3C(COC1=O)N1C(O)C3Cc5cc(C)c(OC)c(O)c5C(C21)N3C)OCO4 = TRUE
O=C(c1cc(Cc2n[nH]c(=O)c3ccccc23)ccc1F)N1CCN(C(=O)C2CC2)CC1 + CC[C@@]1(O)C(=O)OCc2c1cc1n(c2=O)Cc2cc3c(CN(C)C)c(O)ccc3nc2-1 = FALSE

Now for another entry.
**Q:** Hi, sorry to bother you, what did the test record for Cc1sc2c(c1C)C(c1ccc(Cl)cc1)=NC(CC(=O)Nc1ccc(O)cc1)c1nnc(C)n1-2 (stereo not drawn) + COc1cc2c(cc1O)CCNC21CSC2c3c(OC(C)=O)c(C)c4c(c3C(COC1=O)N1C(O)C3Cc5cc(C)c(OC)c(O)c5C(C21)N3C)OCO4 ?
**A:** TRUE

###

Field: viability, T/C. Provide a value for each of the molecules that follow.
Tested on: NCI-H196 SCLC complex tumor spheroid viability
Protocol: Anticancer human tumor NCI-H196 cell line growth inhibition;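 also: spheroids exposed to compounds for 7 days before readout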;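 as to viability, T/C: 100% = DMSO vehicle control wells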
Condition set: second compound 0.003 µM; first compound 0.0316 µM; stronger effect = lower value
Answers are plain numbers, in %.

Provide viability, T/C values for the following items, in order.
1. CC(C)n1c(=O)n(C)c2cnc3cc(F)c(-c4ccc(OCCCN5CCCCC5)nc4)cc3c21 + CC[C@@]1(O)C(=O)OCc2c1cc1n(c2=O)Cc2cc3c(CN(C)C)c(O)ccc3nc2-1
2. CC1COCCN1c1cc(-c2ccnn2C)c2ccnc(-c3ccn[nH]3)c2n1 (configuration not stated) + COc1cc2c(cc1O)CCNC21CSC2c3c(OC(C)=O)c(C)c4c(c3C(COC1=O)N1C(O)C3Cc5cc(C)c(OC)c(O)c5C(C21)N3C)OCO4
3. [2H]c1nc(C)nc([2H])c1-c1cc(NC[C@@H](C)c2cccc3c(C(=O)NC)ccnc23)ncn1 + CC[C@@]1(O)C(=O)OCc2c1cc1n(c2=O)Cc2cc3c(CN(C)C)c(O)ccc3nc2-1
4. COc1cc(C)[nH]c(=O)c1CN1CCc2c(Cl)cc(C(OC)C3COC3)c(Cl)c2C1=O (configuration not stated) + CC[C@@]1(O)C(=O)OCc2c1cc1n(c2=O)Cc2cc3c(CN(C)C)c(O)ccc3nc2-1
5. COc1cc(C)[nH]c(=O)c1CN1CCc2c(Cl)cc(C(OC)C3COC3)c(Cl)c2C1=O (configuration not stated) + COc1cc2c(cc1O)CCNC21CSC2c3c(OC(C)=O)c(C)c4c(c3C(COC1=O)N1C(O)C3Cc5cc(C)c(OC)c(O)c5C(C21)N3C)OCO4
6. Cc1cc(C)c(CNC(=O)c2cc(-c3ccc(CN4CCOCC4)cc3)cc3c2cnn3C2CCCC2)c(=O)[nH]1 + COc1cc2c(cc1O)CCNC21CSC2c3c(OC(C)=O)c(C)c4c(c3C(COC1=O)N1C(O)C3Cc5cc(C)c(OC)c(O)c5C(C21)N3C)OCO4

**A:**
102
9.26
103
108
18.9
6.27
